B1: CPEB3 Ribozyme (parent)
chain: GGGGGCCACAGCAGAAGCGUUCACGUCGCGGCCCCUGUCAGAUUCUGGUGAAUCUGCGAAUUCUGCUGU

- Variants of: B1
- procedureText: self-cleavage, relative activity (ratio to wild type); higher = more cleavage; co-transcriptional
parameter: self-cleavage
Give the value as a plain number.

GGGGGCCACAGCAGAAGCGUUCACGUCGCGGCCCCUGUCUGAUUCUGGUGAAUCUGCGAAUCCUGCUGU [A40U U62C]; 0.351
GGGGGCCACAGCAGAAGCGUUCACGUCGCGGCCCCUCUCAGAUUCUGGUCAAUCUGCGAAUUCUGCUGU [G37C G50C]; 0.265
AGGGGCCACAGCAGAAGCGUUCACGUCGCGGCCCCUGUCAGAUUCUGGUGAAUCUGCGACUUCUGCUGU [G1A A60C]; 0.0326

Bench note: what self-cleavage did GGGGGCCACAGCAGAAGCGUUCACGUCGCGGCCCCUGUCAGAUUCAGGUGAAUCUGCGAAUUCUGCUGA [U46A U69A] show?
0.991

Again, but for GGGGGCCACAGCAGAAGCGUUCCCGUCGCGGCCCCUGUCAGAUUCUGGCGAAUCUGCGAAUUCUGCUGU [A23C U49C]
0.927

// query: GGAGGCCACAACAGAAGCGUUCACGUCGCGGCCCCUGUCAGAUUCUGGUGAAUCUGCGAAUUCUGCUGU [G3A G11A]
0.48
